Let's look at some compounds and their measured growth.
- System: OVCAR-3 ovarian
- method-summary: NCI-60 one-dose screen, 48 h (100 = growth as untreated, 0 = no growth, -100 = all killed)
- test-parameters: 10 µM unless noted
Compounds without any hit were thinned out: in the full panel of roughly 83,000, 20% have a hit.
Give a bare numeral; the unit % is implied.

Sample answers from the record:
compound | tested-target | unit-abbreviation | growth
CCCCCCCCCCOc1ccc(C(=O)Oc2ccc(CSP3(=O)OCC4OC(n5ccc(=O)[nH]c5=O)C(F)C4OP(=O)(O)OCC4OC(n5cnc6c(N)ncnc65)C(F)C4O3)cc2)cc1 (stereo not given) | OVCAR-3 ovarian | % | 97.6
O=C(NCc1ccc([N+](=O)[O-])cc1)Nc1ccc(S(=O)(=O)F)cc1 | OVCAR-3 ovarian | % | 87
CC(=O)Nc1ccc(C=C2C(=O)NC(=O)NC2=O)cc1 | OVCAR-3 ovarian | % | 125

Please indicate growth recorded for "C=CCc1ccc(OC(=O)Cc2ccccc2)c(OC)c1"
110

Dear colleague, please send me the reported growth for "C[C@]12CC[C@@H]3C4=C(CC[C@H]3[C@@H]1CC[C@@H]2O)CC(=O)CC4" when you can.
113
